Origin of the recorded values: PubChem BioAssay AID2060495

tested on: 521955-158-R2-J5-PDC complex spheroid viability; experiment: Anticancer human tumor 521955-158-R2-J5-PDC patient-derived pancreatic carcinoma cell line growth inhibition [GQUAD]; settings: second compound 0.316 µM; first compound 0.0316 µM; hits give low values;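 further: spheroids exposed to agents for one week before reading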
With a cut-off of 50%, any viability, T/C strictly below it is called T; any viability, T/C meeting it or above is called F.

Field: example entries. Status: answers known.
{"columns": ["Molecule", "Class"],
 "data": [
  ["C#Cc1c(F)ccc2cc(O)cc(-c3ncc4c(N5CC6CCC(C5)N6)nc(OCC56CCCN5CC(F)C6)nc4c3F)c12 (centres undefined) + Cc1cnc(CNC(=O)c2c(=O)c3ccc(N4CCCN(C)CC4)nc3n3c2sc2ccccc23)cn1", "T"],
  ["Nc1ccn(C2OC(CO)C(O)C2(F)F)c(=O)n1 (centres undefined) + CN(C)c1ccc(Nc2c3ccc(NC(=O)CCN4CCCC4)cc3nc3cc(NC(=O)CCN4CCCC4)ccc23)cc1", "F"],
  ["COc1ncnc(C2CC2)c1-c1ncc2cnn(Cc3ccc(-c4nc(C(F)(F)F)cn4C(C)C)cc3)c2n1 + Cc1[nH]c2ccc(F)cc2c1-c1nc2c3cccnc3c3ncccc3c2[nH]1", "F"],
  ["CC(=O)O[C@H]1C(=O)[C@@]2(C)[C@H]([C@H](OC(=O)c3ccccc3)[C@]3(O)C[C@H](OC(=O)[C@H](O)[C@@H](NC(=O)c4ccccc4)c4ccccc4)C(C)=C1C3(C)C)[C@]1(OC(C)=O)CO[C@@H]1C[C@@H]2O + Cc1[nH]c2ccc(F)cc2c1-c1nc2c3cccnc3c3ncccc3c2[nH]1", "T"],
  ["Cc1[nH]c2ccccc2c1CCNCc1ccc(/C=C/C(=O)NO)cc1 + Cc1[nH]c2ccc(F)cc2c1-c1nc2c3cccnc3c3ncccc3c2[nH]1", "F"],
  ["CC(=O)O[C@H]1C(=O)[C@@]2(C)[C@H]([C@H](OC(=O)c3ccccc3)[C@]3(O)C[C@H](OC(=O)[C@H](O)[C@@H](NC(=O)c4ccccc4)c4ccccc4)C(C)=C1C3(C)C)[C@]1(OC(C)=O)CO[C@@H]1C[C@@H]2O + CN(C)c1ccc(Nc2c3ccc(NC(=O)CCN4CCCC4)cc3nc3cc(NC(=O)CCN4CCCC4)ccc23)cc1", "T"],
  ["Cc1cccc(N(C)C(=O)C2C(O)CCN2c2nc(C)cc(C(F)(F)F)c2C#N)c1 (centres undefined) + Cc1[nH]c2ccc(F)cc2c1-c1nc2c3cccnc3c3ncccc3c2[nH]1", "F"],
  ["C=CC(=O)N1CCN(c2nc(=O)n(-c3c(C)ccnc3C(C)C)c3nc(-c4c(O)cccc4F)c(F)cc23)C(C)C1 (centres undefined) + Cc1cnc(CNC(=O)c2c(=O)c3ccc(N4CCCN(C)CC4)nc3n3c2sc2ccccc23)cn1", "T"]
]}

Exercise: I'd appreciate it if you could check whether COc1ccc([C@@H](O)c2cc(-c3ncnc4cc(N5CCOCC5)ccc34)c(F)cc2Cl)nn1 + Cc1cnc(CNC(=O)c2c(=O)c3ccc(N4CCCN(C)CC4)nc3n3c2sc2ccccc23)cn1 has viability, T/C smaller than 50%.
Key: T
